assay_system: T1, HLA-A*01 (human)
T1 construct: MHC monomer made peptide-receptive by UV cleavage of a UV-sensitive ligand; also called peptide-receptive MHC class I monomer
experiment_description: UV peptide-exchange ELISA; ++++ = yield >75%
# reported peptide exchange yield; entries follow

Query block: State the recorded peptide exchange yield for this entry: ATSKFMEFY [ATSKFMEFY (SEQ ID NO: 137)]
Result block: > 75%

Origin of the recorded values: patent US11352401
